Reference source: PubChem BioAssay (NCI)

# System: TK-10 renal
# Assay comment: NCI tumour cell line growth inhibition, 48 h
Recorded endpoint: GI50

[
  {
    "Smiles code": "COc1ccccc1-c1ccc2c(N)c(C(=O)c3ccc4c(c3)OCO4)sc2n1",
    "Assay result": "12.8 µM"
  },
  {
    "Smiles code": "O=C(C(=O)c1cccnc1)c1cccnc1",
    "Assay result": "> 100 µM"
  },
  {
    "Smiles code": "Oc1ccccc1/C=N\\Nc1ccccc1",
    "Assay result": "24.9 µM"
  },
  {
    "Smiles code": "CCCn1cc(/C=N\\N=C2\\C(=O)Nc3ccc(C)cc32)c2ccccc21",
    "Assay result": "11.1 µM"
  },
  {
    "Smiles code": "Cc1nccc2c3ccc(OCc4cn(-c5ccc(Br)cc5)nn4)cc3n(CCCc3ccccc3)c12",
    "Assay result": "1.62 µM"
  },
  {
    "Smiles code": "COc1ccc2c(c1)C(=O)/C(=C/c1cccc(OCC(=O)c3ccc([N+](=O)[O-])cc3)c1)CO2",
    "Assay result": "2.97 µM"
  }
]
